Recorded IC50 values for a group of compounds are listed next.
# Tested on: ASNase treated CCRF-CEM cells
# Procedure details: CCRF-CEM ASNase cell proliferation assay, phenotypic assay for cellular inhibition of GCN2
# Type: cell-based
# Test parameters: Homo sapiens, 1 mU/mL ASNase, 72 h, resazurin

Consider the worked cases shown below.
Cn1cc(-c2cccc(NS(=O)(=O)c3cc(CO)c(F)cc3F)c2F)c2c(N)ncnc21 [Example 10] : 1000 to 10000 nM
COC(=O)c1cccc(S(=O)(=O)Nc2cccc(-c3cn(C)c4ncnc(N)c34)c2F)c1Cl [Example 39] : 1000 to 10000 nM
Cn1cc(-c2cccc(NS(=O)(=O)c3cc(Cl)cc(/C=N\O)c3Cl)c2F)c2c(N)ncnc21 [Example 52] : 1000 to 10000 nM
Nc1nccn2c(-c3cn[nH]c3)nc(-c3cccc(NS(=O)(=O)c4cc(Cl)cc(CO)c4Cl)c3F)c12 [Example 19] : 100 to 500 nM
Nc1nccn2c(C3CCC3)nc(-c3cccc(NS(=O)(=O)c4cc(Cl)cc(CO)c4Cl)c3F)c12 [Example 17] : 100 to 500 nM
COc1cc(F)c(S(=O)(=O)Nc2cccc(-c3cn(C)c4ncnc(N)c34)c2F)cc1Cl [Example 37] : 500 to 1000 nM
COc1ncc(Cl)cc1S(=O)(=O)Nc1cc(F)c(F)c(-c2cn(C)c3ncnc(N)c23)c1 [Example 43] : 1000 to 10000 nM
Nc1nccn2c(-c3ccccc3)nc(-c3cccc(NS(=O)(=O)c4cc(Cl)cc(CO)c4Cl)c3F)c12 [Example 12] : 100 to 500 nM

## Task Recorded IC50 for NC(=O)c1cc(-c2cccc(NS(=O)(=O)c3cc(Cl)cc(CO)c3Cl)c2F)c2c(N)ncnn12 [Example 18] , please?
## Result 100 to 500 nM

====

# Measured on: GCN2 kinase (Homo sapiens, UniProt Q9P2K8)
# Construct: G556E with a
# Procedure details: Biochemical assay for GCN2 (TR-FRET kinase activity assay)
# Test parameters: 2 nM GCN2, 1 mM ATP, 3-hour incubation
Recorded IC50 values for a group of molecules are listed next.

Consider the worked cases shown below.
COc1cc(Cl)c(S(=O)(=O)Nc2cccc(-c3cn(C)c4ncnc(N)c34)c2F)cc1Cl : 1000 to 10000 nM
Nc1nccn2c(-c3cn[nH]c3)nc(-c3cccc(NS(=O)(=O)c4cc(Cl)cc(CO)c4Cl)c3F)c12 : ≤ 100 nM
CCC(C)(C)C(=O)OCc1cc(Cl)cc(S(=O)(=O)Nc2cccc(-c3nc(C)n4ccnc(N)c34)c2F)c1Cl : 1000 to 10000 nM
Nc1nccn2c(-c3ccccc3)nc(-c3cccc(NS(=O)(=O)c4cc(Cl)cc(CO)c4Cl)c3F)c12 : ≤ 100 nM
CC(=O)OCc1cc(Cl)cc(S(=O)(=O)Nc2cccc(-c3nc(C(C)(C)C)n4ccnc(N)c34)c2F)c1Cl : 1000 to 10000 nM

## Task Recorded IC50 for "Nc1nccn2c(C3CCC3)nc(-c3cccc(NS(=O)(=O)c4cc(Cl)cc(CO)c4Cl)c3F)c12" , please?
## Result ≤ 100 nM

## Task Recorded IC50 for "Cn1cc(-c2cccc(NS(=O)(=O)c3cc(F)c(Br)cc3F)c2F)c2c(N)ncnc21" , please?
## Result 1000 to 10000 nM

## Task Recorded IC50 for "Cn1cc(-c2cccc(NS(=O)(=O)c3cc(Cl)cc(Br)c3Cl)c2F)c2c(N)ncnc21" , please?
## Result 100 to 500 nM

====

Recorded IC50 values for a group of molecules are listed next.
# Tested on: ASNase treated CCRF-CEM cells
# Procedure details: CCRF-CEM ASNase cell proliferation assay, phenotypic assay for cellular inhibition of GCN2
# Format: cell-based
# Test parameters: Homo sapiens, 1 mU/mL ASNase, 72 h, resazurin

Cn1cc(-c2cccc(NS(=O)(=O)c3ccc(Br)c(C(F)(F)F)c3)c2F)c2c(N)ncnc21 : 1000 to 10000 nM

## Task Recorded IC50 for "Cc1nc(-c2cccc(NS(=O)(=O)c3cc(F)cc(CO)c3F)c2F)c2c(N)nccn12" , please?
## Result 1000 to 10000 nM

## Task Recorded IC50 for "Cc1nc(-c2cc(NS(=O)(=O)c3cc(Cl)cc(CO)c3Cl)cc(F)c2F)c2c(N)nccn12" , please?
## Result 1000 to 10000 nM

## Task Recorded IC50 for "COC(=O)c1cc(Cl)cc(S(=O)(=O)Nc2cccc(-c3cn(C)c4ncnc(N)c34)c2F)c1Cl" , please?
## Result 1000 to 10000 nM

## Task Recorded IC50 for "CC(=O)OCc1cc(Cl)cc(S(=O)(=O)Nc2cccc(-c3nc(C)n4ccnc(N)c34)c2F)c1Cl" , please?
## Result 500 to 1000 nM

## Task Recorded IC50 for "Cn1cc(-c2cccc(NS(=O)(=O)c3cc(F)c(Br)cc3F)c2F)c2c(N)ncnc21" , please?
## Result 1000 to 10000 nM

## Task Recorded IC50 for "CCNc1nc(-c2cccc(NS(=O)(=O)c3cc(Cl)cc(CO)c3Cl)c2F)c2c(N)nccn12" , please?
## Result 100 to 500 nM

## Task Recorded IC50 for "Cc1nc(-c2cccc(NS(=O)(=O)c3cc(Cl)cc(COC(=O)C4CC4)c3Cl)c2F)c2c(N)nccn12" , please?
## Result 1000 to 10000 nM

## Task Recorded IC50 for "COc1ccc(S(=O)(=O)Nc2cccc(-c3cn(C)c4ncnc(N)c34)c2F)cc1Cl" , please?
## Result 1000 to 10000 nM

====

# Measured on: GCN2 kinase (Homo sapiens, UniProt Q9P2K8)
# Construct: G556E with a
# Procedure details: Biochemical assay for GCN2 (TR-FRET kinase activity assay)
# Test parameters: 2 nM GCN2, 1 mM ATP, 3-hour incubation
pIC50: −log10 of the molar value.
Measured endpoint: pIC50

## Task Recorded pIC50 for COCc1cc(Cl)cc(S(=O)(=O)Nc2cccc(-c3nc(C)n4ccnc(N)c34)c2F)c1Cl [Example 48] , please?
## Result 6.00 to 6.30

## Task Recorded pIC50 for CC(C)(C)c1nc(-c2cccc(NS(=O)(=O)c3cc(Cl)cc(CO)c3Cl)c2F)c2c(N)nccn12 [Example 9] , please?
## Result 6.30 to 7.00

## Task Recorded pIC50 for Cn1cc(-c2cccc(NS(=O)(=O)c3cc(Cl)cc(/C=N\O)c3Cl)c2F)c2c(N)ncnc21 [Example 52] , please?
## Result 6.00 to 6.30

## Task Recorded pIC50 for COc1ccc(S(=O)(=O)Nc2cccc(-c3cn(C)c4ncnc(N)c34)c2F)cc1Cl [Example 44] , please?
## Result 5.00 to 6.00

## Task Recorded pIC50 for Cn1cc(-c2cccc(NS(=O)(=O)c3cc(CO)c(F)cc3F)c2F)c2c(N)ncnc21 [Example 10] , please?
## Result 5.00 to 6.00

## Task Recorded pIC50 for CC(C)c1nc(-c2cccc(NS(=O)(=O)c3cc(Cl)cc(CO)c3Cl)c2F)c2c(N)nccn12 [Example 16] , please?
## Result ≥ 7.00

## Task Recorded pIC50 for Nc1nccn2c(C3CC3)nc(-c3cccc(NS(=O)(=O)c4cc(Cl)cc(CO)c4Cl)c3F)c12 [Example 14] , please?
## Result ≥ 7.00

## Task Recorded pIC50 for COc1ncc(Cl)cc1S(=O)(=O)Nc1cc(F)c(F)c(-c2nc(C)n3ccnc(N)c23)c1 [Example 28] , please?
## Result 5.00 to 6.00

====

# Measured on: PERK kinase (Homo sapiens, UniProt Q9NZJ5, A704S)
# Construct: GST (with thrombin site LVPRGS)
# Sequence (Q9NZJ5 with tags, fused parts or gaps A704S): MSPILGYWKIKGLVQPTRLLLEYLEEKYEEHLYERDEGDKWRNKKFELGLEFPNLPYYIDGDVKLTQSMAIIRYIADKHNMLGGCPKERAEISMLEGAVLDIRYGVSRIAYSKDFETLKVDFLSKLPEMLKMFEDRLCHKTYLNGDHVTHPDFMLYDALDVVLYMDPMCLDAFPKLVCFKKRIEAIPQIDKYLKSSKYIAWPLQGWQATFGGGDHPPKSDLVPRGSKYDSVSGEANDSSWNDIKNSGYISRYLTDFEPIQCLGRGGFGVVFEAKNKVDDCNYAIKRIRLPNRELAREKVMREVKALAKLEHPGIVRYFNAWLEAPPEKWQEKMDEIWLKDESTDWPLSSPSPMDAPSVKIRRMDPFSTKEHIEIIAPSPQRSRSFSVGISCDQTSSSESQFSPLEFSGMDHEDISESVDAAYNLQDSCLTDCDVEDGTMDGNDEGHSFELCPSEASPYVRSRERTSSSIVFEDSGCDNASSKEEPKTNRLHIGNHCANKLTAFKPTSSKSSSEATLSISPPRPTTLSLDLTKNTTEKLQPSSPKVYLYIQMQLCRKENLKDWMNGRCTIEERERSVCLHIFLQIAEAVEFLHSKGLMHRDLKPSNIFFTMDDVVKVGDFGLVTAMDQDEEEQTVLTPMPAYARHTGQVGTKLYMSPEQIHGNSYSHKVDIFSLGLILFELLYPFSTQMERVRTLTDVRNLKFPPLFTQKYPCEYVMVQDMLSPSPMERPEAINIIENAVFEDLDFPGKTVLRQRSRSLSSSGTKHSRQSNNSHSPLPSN
# Procedure details: Biochemical assay for PERK (coupled pyruvate kinase/lactate dehydrogenase assay)
# Test parameters: 10 nM PERK, 1 mM ATP, reaction rate 2-3 h time frame, 30° C.
Measured endpoint: IC50

Consider the worked cases shown below.
COc1ncc(Cl)cc1S(=O)(=O)Nc1cc(F)c(F)c(-c2cn(C)c3ncnc(N)c23)c1 [Example 43] : ≤ 100 nM
CC(C)(C)c1nc(-c2cccc(NS(=O)(=O)c3cc(Cl)cc(CO)c3Cl)c2F)c2c(N)nccn12 [Example 9] : ≤ 100 nM
Cc1c(CO)cc(F)cc1S(=O)(=O)Nc1cccc(-c2nc(C)n3ccnc(N)c23)c1F [Example 6] : ≤ 100 nM

## Task Recorded IC50 for CNc1nc(-c2cccc(NS(=O)(=O)c3cc(Cl)cc(CO)c3Cl)c2F)c2c(N)nccn12 [Example 26] , please?
## Result ≤ 100 nM

## Task Recorded IC50 for Cc1nc(-c2cccc(NS(=O)(=O)c3cc(F)cc(CO)c3F)c2F)c2c(N)nccn12 [Example 15] , please?
## Result 100 to 500 nM

## Task Recorded IC50 for COCc1cc(Cl)cc(S(=O)(=O)Nc2cccc(-c3nc(C)n4ccnc(N)c34)c2F)c1Cl [Example 48] , please?
## Result ≤ 100 nM

## Task Recorded IC50 for Cn1cc(-c2cccc(NS(=O)(=O)c3cc(CO)c(F)cc3F)c2F)c2c(N)ncnc21 [Example 10] , please?
## Result 100 to 500 nM

## Task Recorded IC50 for Cn1cc(-c2cccc(NS(=O)(=O)c3ccc(F)c(CO)c3Cl)c2F)c2c(N)ncnc21 [Example 24] , please?
## Result 100 to 500 nM

## Task Recorded IC50 for CNC(=O)c1nc(-c2cccc(NS(=O)(=O)c3cc(Cl)cc(CO)c3Cl)c2F)c2c(N)nccn12 [Example 22] , please?
## Result ≤ 100 nM

## Task Recorded IC50 for CNCc1cc(Cl)cc(S(=O)(=O)Nc2cccc(-c3cn(C)c4ncnc(N)c34)c2F)c1Cl [Example 50] , please?
## Result 500 to 1000 nM
